Data provenance is patent US20260242735A1.

Listed here are binders together with their documented Mean % WT Binding.
Biological target: human CD33 I47A (human, UniProt P20138 18-364)
Sequence (P20138 18-364 I47A limits assumed): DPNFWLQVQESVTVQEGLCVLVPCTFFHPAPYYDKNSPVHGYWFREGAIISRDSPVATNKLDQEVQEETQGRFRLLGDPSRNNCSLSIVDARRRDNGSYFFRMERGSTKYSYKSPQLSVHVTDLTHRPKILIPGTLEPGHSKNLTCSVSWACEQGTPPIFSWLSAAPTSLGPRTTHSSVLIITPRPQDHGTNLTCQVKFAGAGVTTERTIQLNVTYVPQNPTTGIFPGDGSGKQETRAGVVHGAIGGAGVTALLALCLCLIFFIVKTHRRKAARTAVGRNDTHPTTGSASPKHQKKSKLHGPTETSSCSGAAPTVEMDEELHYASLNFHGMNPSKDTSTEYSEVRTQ
Assay: alanine scan, flow cytometry;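 further: HEK293-T cells transiently expressing single-residue alanine mutants of CD33 (alanine swapped to serine), antibody binding read by fluorescence in duplicate, background-subtracted, expressed relative to wild-type CD33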
metric: Mean % WT Binding (% WT)

Refmab #4 (antibody, V domains shown, Full-length format is human IgG1 Fc silent (PG-LALA); The alanine scan used IgG or Fab) VH: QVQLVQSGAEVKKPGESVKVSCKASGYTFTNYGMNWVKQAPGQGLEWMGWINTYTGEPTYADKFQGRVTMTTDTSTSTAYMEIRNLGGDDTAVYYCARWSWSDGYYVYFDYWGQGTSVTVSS VL: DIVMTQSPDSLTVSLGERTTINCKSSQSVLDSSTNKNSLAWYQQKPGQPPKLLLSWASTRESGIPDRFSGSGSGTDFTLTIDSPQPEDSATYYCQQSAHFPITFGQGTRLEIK
144
Refmab #3 (antibody, V domains shown, Full-length format is human IgG1 Fc silent (PG-LALA); The alanine scan used IgG or Fab) VH: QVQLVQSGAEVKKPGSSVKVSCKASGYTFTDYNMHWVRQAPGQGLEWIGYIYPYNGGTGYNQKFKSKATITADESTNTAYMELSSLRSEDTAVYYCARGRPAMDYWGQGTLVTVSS VL: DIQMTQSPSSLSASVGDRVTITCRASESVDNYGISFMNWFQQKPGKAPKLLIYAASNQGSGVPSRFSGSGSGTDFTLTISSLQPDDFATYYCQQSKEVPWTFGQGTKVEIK
165
Refmab #1 (antibody, V domains shown, Full-length format is human IgG1 (Absolute Antibody Ab00283-10.0); The alanine scan used IgG or Fab; also called hP67.6) VH: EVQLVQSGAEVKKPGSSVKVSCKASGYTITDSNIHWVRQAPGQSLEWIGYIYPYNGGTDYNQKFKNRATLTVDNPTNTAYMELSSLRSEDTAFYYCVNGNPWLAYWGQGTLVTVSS VL: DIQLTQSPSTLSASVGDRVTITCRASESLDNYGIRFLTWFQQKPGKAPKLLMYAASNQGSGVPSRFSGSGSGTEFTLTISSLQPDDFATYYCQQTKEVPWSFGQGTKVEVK
84.2
Refmab #2 (antibody, V domains shown, Full-length format is human IgG1 Fc silent (PG-LALA); The alanine scan used IgG or Fab) VH: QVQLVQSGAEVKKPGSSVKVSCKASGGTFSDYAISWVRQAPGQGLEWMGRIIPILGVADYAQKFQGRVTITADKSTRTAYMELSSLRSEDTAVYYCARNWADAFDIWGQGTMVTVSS VL: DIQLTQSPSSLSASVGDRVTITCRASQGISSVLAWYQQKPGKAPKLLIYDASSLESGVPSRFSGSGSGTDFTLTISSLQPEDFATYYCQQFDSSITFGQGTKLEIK
2.1
